- Tested on: P12-Ichikawa
- Protocol Description: cell viability relative to DMSO control; higher = less cytotoxic
- Test Context: RPMI 5 mM glucose + 10% FBS; 48 h; 5.12 µM
Parameter: cell viability. Scope: all listed entries.
Measurement Name: cell viability (%)

INSERT INTO measurements (compound, measurement_name, measured) VALUES
  ('CN1C[C@H]2c3ccccc3Oc3ccc(Cl)cc3[C@@H]2C1', 'cell viability', 96.7),
  ('CN(C)C1=CC=C(C=C1)C(C2=CC=C(C=C2)N(C)C)=C/3\C=C/C(/C=C3)=[N+](C)C', 'cell viability', 6.36),
  ('Cn1cnc2c1c(=O)[nH]c(=O)n2C', 'cell viability', 99),
  ('O=C(Nc1ccc(F)c(C(F)(F)F)c1)Nc1nnc(-c2ccncc2)s1', 'cell viability', 113),
  ('CCn1c(-c2nonc2N)nc2cnc(Oc3cccc(NC(=O)c4ccc(OCCN5CCOCC5)cc4)c3)cc21', 'cell viability', 89.5),
  ('CCC[C@H]1C[C@H](C(=O)N[C@@H]([C@@H]2O[C@@H](SC)[C@@H](O)[C@@H](O)[C@H]2O)[C@H](C)Cl)N(C)C1', 'cell viability', 130),
  ('CCOC(=O)\C1=C(/C)N\C2=C(C1C3=CC=C(C=C3)C4=CC=CC=C4)\C(=O)CC(C)(C)C2 (stereo not drawn)', 'cell viability', 102),
  ('Cc1[nH]c2ccccc2c1CCNCc1ccc(/C=C/C(=O)NO)cc1', 'cell viability', 6.49),
  ('O=c1[nH]c2ccccc2n1C1CCN(Cc2ccc(-c3nc4cc5nc[nH]c5cc4nc3-c3ccccc3)cc2)CC1', 'cell viability', 104),
  ('C=C[C@H]1CN2CC[C@H]1C[C@H]2[C@H](O)c1ccnc2ccc(OC)cc12', 'cell viability', 129),
  ('Cc1cnc(NC(=O)Nc2cc(Br)c(C)cc2OC[C@@H]2CNCCO2)cn1', 'cell viability', 67.9),
  ('COc1cc2ncnc(Nc3cc(Br)c(O)c(Br)c3)c2cc1OC', 'cell viability', 99.7),
  ('NC/1=N/C2=C([NH]C=N2)C(=S)N1', 'cell viability', 96),
  ('CNC1CCC(N(Cc2cccc(-c3ccncc3)c2)C(=O)c2sc3c(F)ccc(F)c3c2Cl)CC1 (stereo not drawn)', 'cell viability', 106),
  ('O=C(c1ccc(Nc2nccc(-c3cc4ccccc4s3)n2)cc1)N1CCC(N2CCCC2)CC1', 'cell viability', 105),
  ('Nc1nc(N)c2nc(CNc3ccc(C(=O)NC(CCC(=O)O)C(=O)O)cc3)cnc2n1 (stereo not drawn)', 'cell viability', 38.5),
  ('C[C@]12CCC(=O)C=C1CC[C@@H]1[C@@H]2CC[C@@]2(C)[C@H]1CC[C@]2(C)O', 'cell viability', 97.9),
  ('O=C(O)c1ccc2c(c1)nc(Nc1cccc(Cl)c1)c1ccncc12', 'cell viability', 84.4);

---

# reported cell viability; entries follow
- System: NOMO1
- Protocol Description: cell viability relative to DMSO control; higher = less cytotoxic
- Test Context: RPMI 5 mM glucose + 10% dialyzed FBS; 48 h; 0.0211 µM
Measurement Name: cell viability (%)

INSERT INTO assay_data (compound, measured) VALUES
  ('O=C(NC[C@H](O)CO)c1ccncc1Nc1ccc(I)cc1F', 81.1),
  ('Cc1c(C(=O)NN2CCCCC2)nn(-c2ccc(Cl)cc2Cl)c1-c1ccc(Cl)cc1', 143),
  ('OC[C@H]1OCC(O1)[N@@]2C=CC(N)=NC2=O (stereo partly drawn)', 109),
  ('CN(NC(=O)CC(=O)NN(C)C(=S)c1ccccc1)C(=S)c1ccccc1', 94.6),
  ('COc1ccc(C(C)=O)c(O)c1', 105),
  ('S=P(N1CC1)(N1CC1)N1CC1', 91.4),
  ('CN1CCCN=C1/C=C/c1cccs1.O=C(O)c1cc2ccccc2c(Cc2c(O)c(C(=O)O)cc3ccccc23)c1O', 104),
  ('O=C(Nc1ccccc1-c1cn2c(CN3CCNCC3)csc2n1)c1cnc2ccccc2n1', 90.5);
